Biological target: KRAS (WT) (Homo sapiens, UniProt P01116)
Construct: Biotinylated KRAS protein amino acids 1-169 (produced at Erasca); made in house
Sequence (P01116 1-169 isoform P01116-2): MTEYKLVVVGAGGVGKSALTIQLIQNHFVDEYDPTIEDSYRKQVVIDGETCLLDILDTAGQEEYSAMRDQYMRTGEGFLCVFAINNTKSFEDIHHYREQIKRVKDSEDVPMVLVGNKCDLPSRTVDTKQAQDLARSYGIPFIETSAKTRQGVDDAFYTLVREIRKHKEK
Experiment: In-vitro RAS-RAF binding assay (RRB), HTRF/FRET
Type: biochemical
Details: Table 2, average of multiple runs of each compound; read-out: Inhibition of RAS-RAF Binding (in-vitro) KRAS (WT) IC50
Observable: pIC50
// pIC50 is dimensionless: -log10 of concentration (M)

Here is how some compounds turned out for pIC50.
# Compound, Observable, Measurement
records = [
    ("C#Cc1c(F)ccc2cc(O)cc(-c3ncc4c(N5CC6CCC(C5)N6)nc(OC[C@@H]5CCCN5CCCOCCC(=O)N[C@H](C(=O)N5C[C@H](O)C[C@H]5C(=O)N[C@@H](C)c5ccc(-c6cc(F)cc(F)c6F)cc5)C(C)(C)C)nc4c3F)c12 [Example 58]", "pIC50", 7.18),
    ("Cc1ncsc1-c1ccc([C@H](CO)NC(=O)[C@@H]2C[C@@H](O)CN2C(=O)[C@@H](NC(=O)CCOCCCN2CCC[C@H]2COc2nc(N3CC4CCC(C3)N4)c3cc(Cl)c(-c4ccc(F)c5sc(N)c(C#N)c45)c(F)c3n2)C(C)(C)C)cc1 [Example 9]", "pIC50", 7.31),
    ("C#Cc1c(F)ccc2cc(O)cc(-c3ncc4c(N5CC6CCC(C5)N6)nc(OC[C@@H]5CCCN5CCCOCCC(=O)N[C@H](C(=O)N5C[C@H](O)C[C@H]5C(=O)N[C@@H](C)c5ccc(-c6c(F)cccc6Cl)cc5)C(C)(C)C)nc4c3F)c12 [Example 42]", "pIC50", 7.60),
    ("CC(C)[C@@H](C(=O)N1C[C@H](O)C[C@H]1C(=O)N[C@@H](C)c1ccc(-c2c(F)cccc2F)cc1)c1cc(OCC2CCN(CCOc3nc(N4CC5CCC(C4)N5)c4cc(Cl)c(-c5ccc(F)c6sc(N)c(C#N)c56)c(F)c4n3)CC2)no1 [Example 17]", "pIC50", 5.55),
    ("Cc1ncsc1-c1ccc([C@H](C)NC(=O)[C@@H]2C[C@@H](O)CN2C(=O)[C@@H](NC(=O)CCCCN2CCC[C@H]2COc2nc(N3CC4CCC(C3)N4)c3cc(Cl)c(-c4ccc(F)c5sc(N)c(C#N)c45)c(F)c3n2)C(C)(C)C)cc1 [Example 89]", "pIC50", 7.18),
]

Problem: Field request: pIC50 | item: C#Cc1c(F)ccc2cc(O)cc(-c3ncc4c(N5CC6CCC(C5)N6)nc(OC[C@@H]5CCCN5CCCOCCC(=O)N[C@H](C(=O)N5C[C@H](O)C[C@H]5C(=O)N[C@@H](C)c5ccc(-c6c(F)cccc6F)nc5)C(C)(C)C)nc4c3F)c12 [Example 31]
Solution: 7.56

Problem: Field request: pIC50 | item: C#Cc1c(F)ccc2cc(O)cc(-c3ncc4c(N5CC6CCC(C5)N6)nc(OC[C@@H]5CCCN5CCCOCCC(=O)N[C@H](C(=O)N5C[C@H](O)C[C@H]5C(=O)N[C@@H](C)c5ccc(-c6c(F)cccc6F)cn5)C(C)(C)C)nc4c3F)c12 [Example 30]
Solution: 7.65

====

Examples of molecules with documented DC50 follow.
Target: KRas G12D fused to HiBiT peptide (Homo sapiens, UniProt P01116, G12D)
Construct: endogenous in cells; host or cells: AsPC-1 HiBiT knock-in single clone (Cas9 RNP + ssODN)
Sequence (P01116 1-188 isoform P01116-2 G12D): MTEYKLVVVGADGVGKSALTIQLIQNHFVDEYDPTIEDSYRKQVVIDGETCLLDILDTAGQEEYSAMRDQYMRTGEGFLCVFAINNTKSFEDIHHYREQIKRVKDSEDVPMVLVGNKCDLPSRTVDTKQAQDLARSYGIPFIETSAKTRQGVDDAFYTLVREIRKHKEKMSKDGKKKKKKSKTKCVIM
Experiment: ASPC-1 HiBit assay to determine G12D degradation
Type: cell-based
Conditions: AsPC-1 HiBiT cells, 24-hour incubation; read-out: ASPC-1 HiBit DC50 (C)
Your answer is read as nM, so omit the unit and give the number.

# Molecule, DC50 / nM
records = [
    ("Cc1ncsc1-c1ccc([C@H](C)NC(=O)[C@@H]2C[C@@H](O)CN2C(=O)[C@@H](NC(=O)CCOCCCN2CCCC2COc2nc(N3CC4CCC(C3)N4)c3cc(Cl)c(-c4ccc(F)c5sc(N)c(C#N)c45)c(F)c3n2)C(C)(C)C)cc1 (some centres unmarked)", 126),
]

Now, please, on to the next molecule.
Problem: Field request: DC50 | item: `C#Cc1c(F)ccc2cc(O)cc(-c3ncc4c(N5CC6CCC(C5)N6)nc(OCCN5CCC6(CC5)CN(c5cc([C@H](C(=O)N7C[C@H](O)C[C@H]7C(=O)N[C@@H](C)c7ccc(-c8ccccc8Cl)cc7)C(C)C)on5)C6)nc4c3F)c12`
Solution: 264

Data origin: patent US20240293558A1
